Each entry below carries its recorded TGI.
Test system: SF-295 CNS
assay text: NCI tumour cell line growth inhibition, 48 h

Example entries begin here.
CC(=O)O[C@H]1C#C/C=C\C#CC[C@@H]2C(=O)N[C@@H]12 :: > 100 µM
Nc1nc(SN=Nc2ccc(S(N)(=O)=O)cc2)c2[nH]cnc2n1 :: > 100 µM
COc1ccc(-c2c[nH]c(=S)n2-c2ccc(OC)cc2)cc1 :: > 50 µM
Cc1ccc(C2(O)CC(c3ccc([N+](=O)[O-])o3)=NN2C(=O)COc2ccc(Cl)cc2)cc1 (stereo not given) :: 27.6 µM
O=C(CSc1nnc(Cc2ccccc2)o1)Nc1ccc([N+](=O)[O-])cc1 :: > 100 µM

For CCOC(=O)/C1=C(\C)N(c2ccc(C)cc2)C(=O)c2ccccc2C(=O)c2c(OC(C)=O)ccc(OC(C)=O)c21 , write its TGI. 43.2 µM

Tell me its TGI given O=C(Cc1ccccc1)NN1C(=O)C(Cl)C1c1ccc(O)cc1 (stereo not given) as the entry. > 100 µM

Read off the recorded TGI for COc1cccc(/C(COc2ccc3c(c2)oc(=O)c2cc(OC)ccc23)=N/O)c1 > 100 µM

Output measured TGI for this item: Cc1ccc(-c2cc(N)n(-c3nc4c(c(=O)n(C)c(=O)n4C)n3C)n2)cc1 > 100 µM

Please list TGI recorded for the compound CCn1nc2c3c(ncn3C(C)(C)O2)c1=O > 100 µM

###

Test system: HCC-2998 colon
assay text: NCI tumour cell line growth inhibition, 48 h
Reported values of TGI for individual entries
Express your answer in µM, writing the number without its unit.

Determine from records and report TGI for CCOC(=O)/C=C(\C(=O)OCC)n1cc(C)c(=O)n(Cc2cnnn2CCCCOC(C)=O)c1=O 43.9

Return value of TGI for input CN(C)Cc1cc(C(=O)/C=C/c2ccccc2Cl)cc(CN(C)C)c1O , no commentary. 36.6

Determine from records and report TGI for [Au+].[Au+].[Au+].[c-]1nccn1Cc1ccccc1.[c-]1nccn1Cc1ccccc1.[c-]1nccn1Cc1ccccc1 37.9

Tell me its TGI given OCC1OC(n2cnc3c(Cl)nc(Nc4ccccc4)nc32)CC1O (centres undefined) as the entry. 44.7

Provide one value: measured TGI of C[C@H](N)C(=O)Nc1ccc(-c2nc3ccccc3s2)cc1 45.8

###

Tested on: HOP-18 NSCLC
assay text: NCI tumour cell line growth inhibition, 48 h
Quick reference for TGI among some compounds

Below: 3 compounds and their reported TGI.
Oc1cc(C2OCCCO2)cc(O)c1O :: > 100 µM
CC(=O)C1=C(C)NC2C=CC=CN12 (configuration not stated) :: > 100 µM
COc1ccc2[nH]c3c4c(ccc3c2c1)C(=O)C=CC4=O :: 22.7 µM

Report TGI, nothing else, for this compound: O=C(NC(Cc1ccc(I)cc1)C(=O)O)c1ccc(Br)cc1 (configuration not stated) > 100 µM

Look up TGI of CC1(C)O/C(=C\c2ccccc2)C(=O)/C(=C/c2ccccc2)O1 and report it. > 100 µM

For the compound COc1cc(Nc2c3ccccc3nc3ccccc23)ccc1NS(C)(=O)=O , report TGI. 26.3 µM

Tell us which TGI value is on record for COc1cccc(-n2c3nc(=O)n(C)c(=O)c-3nc3ccccc32)c1 > 100 µM

The values you see were collected from PubChem BioAssay (NCI).
